Provenance of the data: PubChem BioAssay (NCI)

- protocol summary: NCI Yeast Anticancer Drug Screen. Data for the sgs1 mgt1 strain (AID 161);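 further: 0% = growth of cultures given vehicle only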
- test parameters: S. cerevisiae sgs1 mgt1 strain, at 50.0 µM
Compounds without any hit were thinned out: in the full panel of roughly 79,000, 15% have a hit. The source made the active and inactive calls. No stated cut-off is given here; in the data, active means growth inhibition above about 70%; inactive means the rest.
Entry note: the call must match one of label 1 for active, label 0 for inactive

Past entries and their recorded results:
{"compound": "O=S(=O)(N=N/C=C1\\C=CC=CN1O)c1cccs1", "label class": "label 0"}
{"compound": "CC(C)CC(CC(C)C)OB(OC(CC(C)C)CC(C)C)OC(CC(C)C)CC(C)C", "label class": "label 0"}
{"compound": "CC(C)N(CCC#N)C(=S)Nc1cccc2ccccc12", "label class": "label 0"}
{"compound": "CC(=O)O/N=C1\\C=Cc2c(no[n+]2[O-])C1=O", "label class": "label 0"}
{"compound": "COC(=O)Nc1cccc(OC(=O)NC2CCCCC2)c1", "label class": "label 0"}

Now for another entry.
Q: Which outcome was entered for the compound "Cc1ccc(CNC2=C(Cl)C(=O)c3ccccc3C2=O)cc1C" in this test?
Result: label 1

----------
- protocol summary: NCI Yeast Anticancer Drug Screen. Data for the mec2-1 strain (AID 157)
- test parameters: S. cerevisiae mec2-1 strain, at 50.0 µM, stronger effect = higher value
About 79,000 compounds went through this panel and 15% of them were active in at least one assay; those are over-represented in the sample as a whole. The source made the active and inactive calls. No stated cut-off is given here; in the data, active means growth inhibition above about 70%; inactive means the rest.
assay endpoint: growth inhibition

{"compound": "O=C(O)CCCSc1ccc2ccccc2c1", "growth inhibition": "3.75% (inactive)"}

Now, please, on to the next compound.
COc1ccc(S(=O)c2coc3ccccc3c2=O)cc1 (stereo unspecified) has a reported growth inhibition of -9.05% (inactive)

----------
- protocol summary: NCI Yeast Anticancer Drug Screen. Data for the sgs1 mgt1 strain (AID 161);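 further: 0% = growth of cultures given vehicle only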
- test parameters: S. cerevisiae sgs1 mgt1 strain, at 50.0 µM, stronger effect = higher value
Compounds without any hit were thinned out: in the full panel of roughly 79,000, 15% have a hit.
assay endpoint: growth inhibition (%)
Respond with the bare value in %.

# example entries with known answers
{"compound": "O=C(CCc1cc(O)cc(O)c1)NCCc1cc(OCc2ccccc2)cc(OCc2ccccc2)c1", "growth inhibition / %": 45}
{"compound": "O=C(NC(=S)Nc1ccc(S(=O)(=O)c2ccc(NC(=S)NC(=O)c3ccccc3)cc2)cc1)c1ccccc1", "growth inhibition / %": -7.8}
{"compound": "COC1CCCC2CC3=C(CCCC3)OC21 (stereo unspecified)", "growth inhibition / %": 5.1}
{"compound": "Cc1cccc2c1Oc1ccccc1C2N1C(=O)/C(=C/c2ccc(Cl)c(Cl)c2)SC1=S (stereo unspecified)", "growth inhibition / %": 6.75}
{"compound": "O=[N+]([O-])c1ccc(C2=Nc3ccccc3S(=O)C(c3ccccc3)C2)cc1 (stereo unspecified)", "growth inhibition / %": 19.9}

"O=C1CCC(=O)N1c1ccc([I+]c2ccc(N3C(=O)CCC3=O)cc2)cc1" has a reported growth inhibition of 12.7

"COC(=O)[C@]1(C)OP(OC)(OC)(OC)O[C@]1(C)C(=O)OC" has a reported growth inhibition of 3.25

----------
- protocol summary: NCI Yeast Anticancer Drug Screen. Data for the mlh1 rad18 strain (AID 175)
- test parameters: S. cerevisiae mlh1 rad18 strain growth inhibition; at 50.0 µM
About 79,000 compounds went through this panel and 15% of them were active in at least one assay; those are over-represented in the sample as a whole. Activity calls are given as the source filed them. No stated cut-off is given here; in the data, active means growth inhibition above about 70%; inactive means the rest.
Entry note: the call must match one of active, inactive

Past entries and their recorded results:
{"molecule": "COCCOC(=O)c1ccccc1Cl", "label class": "inactive"}
{"molecule": "CCOC1=CC(=O)CCC1", "label class": "inactive"}
{"molecule": "Cc1ncc(CSC(=N)N)n1Cc1ccccc1", "label class": "inactive"}

Now for another entry.
Q: Which outcome was entered for the molecule "Cc1cc2nc(-c3ccccn3)c(-c3ccccn3)nc2cc1C" in this test?
Result: inactive

----------
- protocol summary: NCI Yeast Anticancer Drug Screen. Data for the mlh1 rad18 strain (AID 175)
- test parameters: S. cerevisiae mlh1 rad18 strain growth inhibition; at 50.0 µM; stronger effect = higher value
- Experimental: Growth inhibition of yeast strains with defined genetic alterations is measured as a screen for potential anti-cancer activity. Selected strains with alterations in DNA damage repair or cell cycle control were exposed to compounds and growth inhibition was measured relative to vehicle treated controls. The strain used in this assay is mlh1 rad18
Compounds without any hit were thinned out: in the full panel of roughly 79,000, 15% have a hit.
Listed here are compounds together with their documented growth inhibition.
Respond with the bare value in %.

# example entries with known answers
{"compound": "CCCCCCCCCCCCCCCCN(C)C(=S)c1ccc(OC)cc1", "measured result": -8.4}
{"compound": "CCOC(=O)NCC(Cl)(Cl)Cl", "measured result": -6.7}

"COc1ccc(C(=O)O)c2c(=O)c3ccccc3[nH]c12" has a reported growth inhibition of 26.8

"COc1ccccc1NC(=S)N1CCC(CCCC2CCN(C(=S)Nc3ccccc3OC)CC2)CC1" has a reported growth inhibition of -13.2

"CCCCNc1nc(Cl)nc(C(F)(F)F)c1N" has a reported growth inhibition of 1.35

"CCCCCCC1CCC(=O)CC1" has a reported growth inhibition of 34.5

"O=c1cc(Nc2ccccc2Cl)[nH]c(=O)[nH]1" has a reported growth inhibition of -13.2

----------
- protocol summary: NCI Yeast Anticancer Drug Screen. Data for the sgs1 mgt1 strain (AID 161);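 further: 0% = growth of cultures given vehicle only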
- test parameters: S. cerevisiae sgs1 mgt1 strain, at 50.0 µM, stronger effect = higher value
About 79,000 compounds went through this panel and 15% of them were active in at least one assay; those are over-represented in the sample as a whole. Activity calls are given as the source filed them. Cut-off read from the data, not from the text of the source: active = growth inhibition above about 70%; inactive = the rest.
Listed here are compounds together with their documented growth inhibition.

# example entries with known answers
{"compound": "CC1=C(C(=O)Nc2ccc([N+](=O)[O-])cc2)C(c2cccc([N+](=O)[O-])c2)C(C(=O)Nc2ccc([N+](=O)[O-])cc2)=C(C)N1", "growth inhibition": "12.9% (inactive)"}
{"compound": "COC(=O)CCBr", "growth inhibition": "28.8% (inactive)"}
{"compound": "COC(=O)N1c2ccccc2C23CCN4CCCC5(CCC12C(C(=O)O)C5)C43 (stereo unspecified)", "growth inhibition": "0.15% (inactive)"}
{"compound": "O=c1ccc2ccc(O)cc2o1", "growth inhibition": "0.9% (inactive)"}
{"compound": "CN(C)CCCC1(O)c2ccccc2Sc2cc(Cl)ccc21 (stereo unspecified)", "growth inhibition": "17.9% (inactive)"}

"CC[n+]1ccnc2ccccc21" has a reported growth inhibition of -1.35% (inactive)

----------
- protocol summary: NCI Yeast Anticancer Drug Screen. Data for the cln2 rad14 strain (AID 165);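 further: 0% = growth equal to vehicle treated cultures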
- test parameters: S. cerevisiae cln2 rad14 strain, at 50.0 µM, stronger effect = higher value
The panel holds about 79,000 compounds, 15% with a hit somewhere; the sample as a whole holds those more often.
# binarize growth inhibition: threshold 10% inclusive, high side t, low side f

Past entries and their recorded results:
{"compound": "COc1ccc(C2CC(c3cc(C)ccc3O)=NC(N)=N2)cc1 (stereo not drawn)", "label class": "t"}
{"compound": "Cc1nn(CCO)c(N)c1C(N)=O", "label class": "f"}
{"compound": "O=C(Oc1ccn(C2OC(CO)C(O)C2O)c(=O)c1)C12CC3CC(CC(C3)C1)C2 (stereo not drawn)", "label class": "t"}
{"compound": "Cc1ccccc1C(c1ccccc1C)c1ccccc1C", "label class": "f"}
{"compound": "CC(=O)Nc1cc2cc(Br)ccc2oc1=O", "label class": "t"}

Q: Check the entry "BrCC1=CC(c2ccccc2)(c2ccccc2)c2ccccc21" : does growth inhibition equal or exceed 10%?
Result: t

Q: Check the entry "COc1ccc(-c2c([O-])oc(-c3ccccc3)[n+]2C)cc1" : does growth inhibition equal or exceed 10%?
Result: f

Q: Check the entry "Cn1c(=O)oc2cc(C(=O)CSC(=S)N3CCCCCC3)ccc21" : does growth inhibition equal or exceed 10%?
Result: f

Q: Check the entry CC(C(=O)O)C(C)C(=O)Nc1ccccc1 (stereo not drawn) : does growth inhibition equal or exceed 10%?
Result: t

Q: Check the entry CNCCC(C(=O)O)c1ccccc1 (stereo not drawn) : does growth inhibition equal or exceed 10%?
Result: f

Q: Check the entry "O=C(CCN1CCOCC1)Nc1ccc(F)cc1F" : does growth inhibition equal or exceed 10%?
Result: f

Q: Check the entry "COc1c(NC(=O)CC(C)=O)cccc1NC(=O)CC(C)=O" : does growth inhibition equal or exceed 10%?
Result: f

Q: Check the entry CC(c1ccccc1)n1cnc2c(=S)nc[nH]c21 (stereo not drawn) : does growth inhibition equal or exceed 10%?
Result: f

Q: Check the entry "O=C(COc1ccc(Cl)c(Cl)c1)NCc1cccc([N+](=O)[O-])c1" : does growth inhibition equal or exceed 10%?
Result: f

Q: Check the entry "O=S(=O)(O)c1cc(N=Nc2cc(S(=O)(=O)O)c3cccnc3c2O)ccc1/C=C/c1ccc(N=Nc2cc(S(=O)(=O)O)c3cccnc3c2O)cc1S(=O)(=O)O.[Cu+2].[Na+]" : does growth inhibition equal or exceed 10%?
Result: t
